# Tested on: NCI-H522
# ASSAY: NCI tumour cell line growth inhibition, 48 h
Active and inactive are the calls of the source. Rule as the data show it: active = GI50 up to about 1.1 µM and inactive = higher.
Valid outcomes are listed here; reply with one: true (active), false (inactive)

For orientation, consider the following solved cases.
{"COMPOUND": "CC(=O)Nc1ccc(NS(=O)(=O)c2ccc3nc(C)n(NS(=O)(=O)c4ccc(NC(C)=O)cc4)c(=O)c3c2)cc1", "LABEL": "false"}
{"COMPOUND": "CN(C)CCCNC(=O)c1cc(NC(=O)c2cc(NS(=O)(=O)c3ccc4c(c3)C(=O)c3ccccc3C4=O)cn2C)cn1C", "LABEL": "false"}
{"COMPOUND": "COC(=O)c1c2c(cc3c1CC1(Cc4cc5c(c(C(C)=O)c4C1)CCCC5)C3)CCCC2 (stereo not drawn)", "LABEL": "false"}
{"COMPOUND": "CC[C@@]1(O)CC(OC2CC(N3CCOCC3)C(O)C(C)O2)c2c(O)c3c(c(O)c2[C@H]1O)C(=O)c1cccc(O)c1C3=O (stereo partly drawn)", "LABEL": "true"}
{"COMPOUND": "COc1nc2c(c(=O)[nH]1)N=C(c1ccc(Cl)cc1)CC(c1ccccc1)N2 (stereo not drawn)", "LABEL": "false"}

Hello, I am checking results. What call was entered for CCOC(=O)CNC(=O)C(C)NC(=O)C(NC(=O)CC(c1ncc[nH]1)c1ncc[nH]1)C(C)CC (stereo not drawn) ?
false

Identify the outcome logged in this assay for the compound shown: Cc1cc2c(cc1C(=O)CCC(=O)O)CC1(C2)Cc2cc(C)c(C(=O)CCC(=O)O)cc2C1
false

Called result for C=C1C(=O)OC2C1C(OC(=O)/C(C)=C/C)CC(O)(CCl)C1C(OC(C)=O)C=C(C)C21O (stereo not drawn)
false
